- Tested on: Uterine Eosinophil Peroxidase (EPO)
- Design: species or system Sprague Dawley rats
- CONDITIONS USED: rat, in vivo, po, 0.01 mg/kg
QUANTITY MEASURED: Uterine EPO (V. max)

compound="CC(c1ccc(OCCN2CCCCC2)cc1)c1c(-c2ccc(O)cc2)sc2cc(O)ccc12 (stereo not shown)" tested_system="Uterine Eosinophil Peroxidase (EPO)" measurement=4.5
compound="CC(O)(c1ccc(OCCN2CCCCC2)cc1)c1c(-c2ccc(O)cc2)sc2cc(O)ccc12 (stereo not shown)" tested_system="Uterine Eosinophil Peroxidase (EPO)" measurement=4.2
compound="Oc1ccc(-c2sc3cc(O)ccc3c2C(O)(c2ccccc2)c2ccc(OCCN3CCCCC3)cc2)cc1 (stereo not shown)" tested_system="Uterine Eosinophil Peroxidase (EPO)" measurement=4.2
compound="O=C(c1ccc(OCCN2CCCCC2)cc1)c1c(-c2ccc(O)cc2)sc2cc(O)ccc12 [Raloxifene, reference compound]" tested_system="Uterine Eosinophil Peroxidase (EPO)" measurement=3.9

----------
- System: Serum cholesterol
- MEASUREMENT PROTOCOL: Serum cholesterol in ovariectomized rats (post-menopausal model)
- Type: in vivo, Sprague Dawley rats
- CONDITIONS USED: oral, daily for 4 days, dose 0.01 mg/kg
- Experimental: In the examples illustrating the methods, a post-menopausal model was used in which effects of different treatments upon circulating lipids were determined. […] Dosing Regimen Tissue Collection. […] The animals are then sacrificed by asphyxiation with CO2, the uterus is removed through a midline incision, and a wet uterine weight is determined. Cholesterol Analysis. […] Serum cholesterol is determined using a Boehringer Mannheim Diagnostics high performance cholesterol assay. […]
# key: entry, value: Serum Cholesterol (% decrease vs. OVX)
Use % as the unit, but write only the number.

Before answering, review these 2 worked examples.
compound="CC(c1ccc(OCCN2CCCCC2)cc1)c1c(-c2ccc(O)cc2)sc2cc(O)ccc12 (stereo not shown)" measurement=−26.5
compound="CC(O)(c1ccc(OCCN2CCCCC2)cc1)c1c(-c2ccc(O)cc2)sc2cc(O)ccc12 (stereo not shown)" measurement=−10.2

Given O=C(c1ccc(OCCN2CCCCC2)cc1)c1c(-c2ccc(O)cc2)sc2cc(O)ccc12 [Raloxifene, reference compound] , respond with its Serum Cholesterol (% decrease vs. OVX). 12.0

Input Oc1ccc(-c2sc3cc(O)ccc3c2C(O)(c2ccccc2)c2ccc(OCCN3CCCCC3)cc2)cc1 (stereo not shown) , output reported Serum Cholesterol (% decrease vs. OVX). −9.0

----------
- Test system: Uterine Eosinophil Peroxidase (EPO)
- Set-up: species or system Sprague Dawley rats
- CONDITIONS USED: rat, in vivo, po, 1 mg/kg
QUANTITY MEASURED: Uterine EPO (V. max)

These solved cases illustrate the format of a correct answer.
compound="Oc1ccc(-c2sc3cc(O)ccc3c2C(O)(c2ccccc2)c2ccc(OCCN3CCCCC3)cc2)cc1 (stereo not shown)" quantity_measured="Uterine EPO (V. max)" measurement=4.5
compound="O=C(c1ccc(OCCN2CCCCC2)cc1)c1c(-c2ccc(O)cc2)sc2cc(O)ccc12 [Raloxifene, reference compound]" quantity_measured="Uterine EPO (V. max)" measurement=4.5

a: CC(c1ccc(OCCN2CCCCC2)cc1)c1c(-c2ccc(O)cc2)sc2cc(O)ccc12 (stereo not shown)
b: CC(O)(c1ccc(OCCN2CCCCC2)cc1)c1c(-c2ccc(O)cc2)sc2cc(O)ccc12 (stereo not shown)
Which entry has a larger number for Uterine EPO (V. max), a or b ? Indicate which entry you chose by stating its label. b
(b: 7.8, a: 5.4)
